Target: RET (Homo sapiens)
Test: Inhibition of RET kinase activity, recombinant RET method (Kinase-Glo)
Conditions: RET 2 μg/ml, poly-EY4 substrate, 20 μM ATP, two hours at 30° C.
Would you mind telling me the reported IC50 of each entry?

> print(dat)
                                   compound  measured.attribute       reading
1  CN(C)CCCNC(=O)c1c[nH]c2c(=O)[nH]c3ccccc3c12                IC50  10 to 100 µM
2  CCCOC(=O)c1c[nH]c2c(=O)[nH]c3ccc(S(=O)(=O)N(C)CC(N)=O)cc3c12                IC50   0.1 to 1 µM
3  CC(C)(C)OC(=O)N[C@H]1CCN(S(=O)(=O)c2ccc3[nH]c(=O)c4[nH]cc(C(=O)O)c4c3c2)C1                IC50  10 to 100 µM

Give IC50 for each listed item.
1. CCOC(=O)c1c[nH]c2c(=O)[nH]c3ccc(NS(=O)(=O)c4ccc(NC(C)=O)cc4)cc3c12
2. O=C(c1ccccc1)c1c[nH]c2c(=O)[nH]c3ccccc3c12
3. O=C(NCC1CCCCC1)c1c[nH]c2c(=O)[nH]c3ccccc3c12
4. NC(=O)c1c[nH]c2c(=O)[nH]c3ccccc3c12

["1 to 10 µM", "1 to 10 µM", "10 to 100 µM", "10 to 100 µM"]

====

Biological target: RET (Homo sapiens, UniProt P07949)
Sequence (P07949 29-1114): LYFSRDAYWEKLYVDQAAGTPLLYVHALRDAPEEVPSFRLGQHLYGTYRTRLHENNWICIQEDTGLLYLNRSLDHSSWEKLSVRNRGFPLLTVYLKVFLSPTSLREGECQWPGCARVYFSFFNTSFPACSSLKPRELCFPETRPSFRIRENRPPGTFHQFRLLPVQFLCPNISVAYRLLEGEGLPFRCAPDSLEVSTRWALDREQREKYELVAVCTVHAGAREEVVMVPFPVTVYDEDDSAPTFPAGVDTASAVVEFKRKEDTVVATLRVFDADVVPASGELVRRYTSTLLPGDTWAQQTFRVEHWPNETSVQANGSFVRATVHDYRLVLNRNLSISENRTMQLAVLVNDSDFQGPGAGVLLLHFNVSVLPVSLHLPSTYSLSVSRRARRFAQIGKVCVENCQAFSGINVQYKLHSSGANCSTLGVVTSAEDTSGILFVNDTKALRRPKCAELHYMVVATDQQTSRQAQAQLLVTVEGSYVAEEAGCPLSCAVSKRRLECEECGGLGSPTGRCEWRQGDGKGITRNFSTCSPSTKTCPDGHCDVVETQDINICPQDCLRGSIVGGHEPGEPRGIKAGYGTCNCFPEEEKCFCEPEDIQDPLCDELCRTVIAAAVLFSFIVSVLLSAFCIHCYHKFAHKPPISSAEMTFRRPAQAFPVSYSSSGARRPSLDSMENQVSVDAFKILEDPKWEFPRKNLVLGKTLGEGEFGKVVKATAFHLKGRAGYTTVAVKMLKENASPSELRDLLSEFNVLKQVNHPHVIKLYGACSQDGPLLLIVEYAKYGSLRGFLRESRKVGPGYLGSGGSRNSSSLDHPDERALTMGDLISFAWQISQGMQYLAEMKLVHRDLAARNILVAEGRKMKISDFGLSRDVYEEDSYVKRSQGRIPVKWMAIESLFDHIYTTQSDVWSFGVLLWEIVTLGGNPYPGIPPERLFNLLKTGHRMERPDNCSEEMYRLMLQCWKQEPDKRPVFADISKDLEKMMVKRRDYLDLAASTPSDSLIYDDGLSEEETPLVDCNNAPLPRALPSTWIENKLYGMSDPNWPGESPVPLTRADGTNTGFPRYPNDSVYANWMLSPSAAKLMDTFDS
Experiment: Inhibition of RET kinase activity, recombinant RET method (Kinase-Glo)
Conditions: RET 2 μg/ml, poly-EY4 substrate, 20 μM ATP, two hours at 30° C.
pIC50: −log10 of the molar value.
Measured attribute: pIC50

Some molecules with known pIC50 results, for comparison:
> print(dat)
                                   molecule                       tested.target       reading
1  CCOC(=O)c1c[nH]c2c(=O)[nH]c3ccc(S(=O)(=O)Nc4cccc(OC)c4)cc3c12  RET (Homo sapiens, UniProt P07949)  6.00 to 7.00
2  CCOC(=O)c1c[nH]c2c(=O)[nH]c3ccc(S(=O)(=O)NCC4CCNCC4)cc3c12  RET (Homo sapiens, UniProt P07949)  5.00 to 6.00
3  NC(=O)C1CCCN(S(=O)(=O)c2ccc3[nH]c(=O)c4[nH]cc(C(=O)O)c4c3c2)C1 (stereo not shown)  RET (Homo sapiens, UniProt P07949)  4.00 to 5.00
4  CCCOC(=O)c1c[nH]c2c(=O)[nH]c3ccc(S(=O)(=O)N(C)CCN4CCCC4)cc3c12  RET (Homo sapiens, UniProt P07949)  6.00 to 7.00
5  CCOC(=O)c1c[nH]c2c(=O)[nH]c3ccc(S(=O)(=O)N(C)c4cccc(Cl)c4)cc3c12  RET (Homo sapiens, UniProt P07949)  6.00 to 7.00

Give one value of pIC50 per listed molecule.
1. CN(C(=O)OC(C)(C)C)C1CCN(S(=O)(=O)c2ccc3[nH]c(=O)c4[nH]cc(C(=O)O)c4c3c2)C1 (stereo not shown)
2. COC(=O)c1c[nH]c2c(=O)[nH]c3ccc(S(=O)(=O)NN4CCCCC4)cc3c12

1: 4.00 to 5.00; 2: 5.00 to 6.00

====

So I've got a bunch of compounds here, and I need their IC50 values.
Molecular target: RET (Homo sapiens, UniProt P07949)
Test: Inhibition of RET kinase activity, recombinant RET method (Kinase-Glo)
Details: RET 2 μg/ml, poly-EY4 substrate, 20 μM ATP, two hours at 30° C.

Hi team, please reply with IC50 for each item in this list.
1. CN(C)CCNC(=O)c1c[nH]c2c(=O)[nH]c3ccccc3c12
2. CCOC(=O)c1c[nH]c2c(=O)[nH]c3ccc(-c4csc(NNc5ccccc5)n4)cc3c12
3. CCOC(=O)c1c[nH]c2c(=O)[nH]c3ccc(-c4csc(NC(=O)C5CC5)n4)cc3c12
4. C#CCN(CCO)S(=O)(=O)c1ccc2[nH]c(=O)c3[nH]cc(C(=O)OCCC)c3c2c1
5. O=C(O)c1c[nH]c2c(=O)[nH]c3ccccc3c12

["10000 to 100000 nM", "1000 to 10000 nM", "100 to 1000 nM", "100 to 1000 nM", "10000 to 100000 nM"]

====

Target: RET (Homo sapiens)
Test: Inhibition of RET kinase activity, recombinant RET method (Kinase-Glo)
Details: RET 2 μg/ml, poly-EY4 substrate, 20 μM ATP, two hours at 30° C.
Measured attribute: IC50

Batch lookup, IC50 per entry.
1. CCCOC(=O)c1c[nH]c2c(=O)[nH]c3ccc(S(=O)(=O)N4CCCC(C(N)=O)C4)cc3c12 (stereo not shown) [Compound 179]
2. CCOC(=O)c1c[nH]c2c(=O)[nH]c3ccc(-c4ccnc(N5CCN(C(C)=O)CC5)n4)cc3c12 [Compound 268]
3. CCCOC(=O)c1c[nH]c2c(=O)[nH]c3ccc(S(=O)(=O)N(CCOCc4ccccc4)C4CC4)cc3c12 [Compound 181]

100 to 1000 nM
1000 to 10000 nM
1000 to 10000 nM

For each entry beneath this line, provide reported IC50.
1. COC(=O)c1c[nH]c2c(=O)[nH]c3ccc(S(=O)(=O)NC4CCNCC4)cc3c12 [Compound 113]
2. CCOC(=O)c1c[nH]c2c(=O)[nH]c3ccc(NS(=O)(=O)c4cccc(C)c4)cc3c12 [Compound 48]
3. CN(c1ccc(F)cc1)S(=O)(=O)c1ccc2[nH]c(=O)c3[nH]cc(C(=O)OCCCNC(=O)OC(C)(C)C)c3c2c1 [Compound 108]
4. COC(=O)c1c[nH]c2c(=O)[nH]c3ccccc3c12 [Compound 73]

100 to 1000 nM
10000 to 100000 nM
10000 to 100000 nM
1000 to 10000 nM

====

Biological target: RET (Homo sapiens, UniProt P07949)
Assay: Inhibition of RET kinase activity, recombinant RET method (Kinase-Glo)
Details: RET 2 μg/ml, poly-EY4 substrate, 20 μM ATP, two hours at 30° C.
pIC50: −log10 of the molar value. Where a name gives a salt, the structure may show the parent alone.
Assign pIC50 to each entry below.

> print(dat)
                                   compound       reading
1  CCOC(=O)c1c[nH]c2c(=O)[nH]c3ccc(NS(=O)(=O)c4cccc(OC)c4)cc3c12  5.00 to 6.00
2  CCOC(=O)c1c[nH]c2c(=O)[nH]c3ccc(NS(=O)(=O)c4ccc(C(C)=O)cc4)cc3c12  5.00 to 6.00
3  COC(=O)c1c[nH]c2c(=O)[nH]c3ccc(S(=O)(=O)NC4CCCNC4)cc3c12 (stereo not shown)  5.00 to 6.00

Could you now consider this next compound?
# CCCOC(=O)c1c[nH]c2c(=O)[nH]c3ccc(S(=O)(=O)N(C[C@@H]4CCCN4)C(C)C)cc3c12 [Compound 149, hydrochloride] with RET (Homo sapiens, UniProt P07949): pIC50 is > 7.00

====

Would you mind telling me the reported IC50 of each entry?
Biological target: RET (Homo sapiens)
Assay: Inhibition of RET kinase activity, recombinant RET method (Kinase-Glo)
Settings: RET 2 μg/ml, poly-EY4 substrate, 20 μM ATP, two hours at 30° C.
Counter-ions that a name gives are not always drawn.

As a guide, the following entries are already answered.
> print(dat)
                                   compound       reading
1  CCCOC(=O)c1c[nH]c2c(=O)[nH]c3ccc(S(=O)(=O)N(C[C@@H](C)NC(=O)OC(C)(C)C)C4CC4)cc3c12    1 to 10 µM
2  CCCOC(=O)c1c[nH]c2c(=O)[nH]c3ccc(S(=O)(=O)N(C[C@H]4CCCN4C(=O)OC(C)(C)C)C4CC4)cc3c12    1 to 10 µM
3  CCCNC(=O)c1c[nH]c2c(=O)[nH]c3ccc(S(=O)(=O)N(C)C)cc3c12  10 to 100 µM
4  CCOC(=O)c1c[nH]c2c(=O)[nH]c3ccc(C#CCN(C)CCC#N)cc3c12   0.1 to 1 µM

Parameters: items (list). Returns: IC50 for each item.
1. CCOC(=O)CCNS(=O)(=O)c1ccc2[nH]c(=O)c3[nH]cc(C(=O)OCC)c3c2c1
2. C#CCN(C[C@@H]1CCCN1)S(=O)(=O)c1ccc2[nH]c(=O)c3[nH]cc(C(=O)OCCC)c3c2c1 [Compound 150, hydrochloride]
3. CN(c1ccc(F)cc1)S(=O)(=O)c1ccc2[nH]c(=O)c3[nH]cc(C(=O)OCCN)c3c2c1
4. CCCOC(=O)c1c[nH]c2c(=O)[nH]c3ccc(S(=O)(=O)N(C[C@H](C)NC(=O)OC(C)(C)C)C4CC4)cc3c12
5. CN(c1ccc(F)cc1)S(=O)(=O)c1ccc2[nH]c(=O)c3[nH]cc(C(=O)OCCNC(=O)OC(C)(C)C)c3c2c1
6. CCCOC(=O)c1c[nH]c2c(=O)[nH]c3ccc(S(=O)(=O)N4CCC(N(C)C(=O)OC(C)(C)C)C4)cc3c12 (stereo not drawn)
7. O=C(NCCCO)c1c[nH]c2c(=O)[nH]c3ccccc3c12
8. CCOC(=O)c1c[nH]c2c(=O)[nH]c3ccc(-c4csc(Nc5ccc(Cl)c(Cl)c5)n4)cc3c12

1: 1 to 10 µM; 2: < 0.1 µM; 3: 10 to 100 µM; 4: 0.1 to 1 µM; 5: 10 to 100 µM; 6: 1 to 10 µM; 7: 10 to 100 µM; 8: 1 to 10 µM

Hello, the source for this data is patent US8426437B2, in case you need it.
